Experiment: Apparent half life of the compound in 50% v/v human plasma by HPLC analysis
Assay type: ADME, cell-free
Settings: 50% v/v plasma, read-out: t1/2(app)
property: half-life

                             smilesrepr   property  measuredresult
0  C[C@@H]1OC(=O)[C@@H]1NC(=O)OC(C)(C)C  half-life        2.99 min

====

Each entry below lists one item and its recorded half-life value.
Assay: Apparent Half life of the compound in 0.01 M phosphate buffer at pH 5 in presence of 3 mM DTT
Details: read-out: t1/2(app)
property: half-life (h)

>>> df
                              smilesrepr   property  measuredresult
0            CC(C)(C)OC(=O)N[C@H]1COC1=O  half-life            0.65
1   COc1ccc2cc(C(=O)N[C@H]3COC3=O)ccc2c1  half-life           0.318
2   C[C@@H]1OC(=O)[C@@H]1NC(=O)OC(C)(C)C  half-life            2.44
3     C[C@H]1OC(=O)[C@H]1NC(=O)OC(C)(C)C  half-life            2.49
4  C[C@@H]1OC(=O)[C@@H]1NC(=O)OCc1ccccc1  half-life            2.12
5    C[C@H]1OC(=O)[C@H]1NC(=O)CCc1ccccc1  half-life            1.67

====

Assay: Apparent Half life of the compound in 0.01 M phosphate-buffered saline at pH 7.4
Format: physicochemical
Conditions: read-out: t1/2(app)
Everything with half-life lower than 30 min is Not satisfied; everything else, including exactly 30 min, is Satisfied.

>>> print(df.to_string())
                             smilesrepr       category
0          O=C(NCc1ccccc1)N[C@H]1COC1=O  Not satisfied
1  COc1ccc2cc(C(=O)N[C@H]3COC3=O)ccc2c1  Not satisfied
2      O=C(N[C@H]1COC1=O)c1ccc2ccccc2c1  Not satisfied
3  C[C@@H]1OC(=O)[C@@H]1NC(=O)OC(C)(C)C      Satisfied
4          O=C(N[C@H]1COC1=O)OCc1ccccc1  Not satisfied

====

Molecular target: N-acylethanolamine-hydrolyzing acid amidase (Rattus norvegicus, UniProt Q5KTC7)
Sequence (Q5KTC7 34-130 limits assumed): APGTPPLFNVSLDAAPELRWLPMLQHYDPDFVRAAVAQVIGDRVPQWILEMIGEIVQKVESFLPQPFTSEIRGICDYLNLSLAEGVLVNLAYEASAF
Sequence (Q5KTC7 131-362 limits assumed): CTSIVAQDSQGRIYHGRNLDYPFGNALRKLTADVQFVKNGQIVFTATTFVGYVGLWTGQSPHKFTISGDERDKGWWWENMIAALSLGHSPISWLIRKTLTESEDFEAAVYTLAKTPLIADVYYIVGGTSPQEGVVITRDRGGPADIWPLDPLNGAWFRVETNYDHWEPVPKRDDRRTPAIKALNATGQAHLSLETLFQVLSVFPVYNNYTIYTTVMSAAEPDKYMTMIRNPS
Assay: Inhibition of rat recombinant NAAA expressed in HEK293 cells using heptadecenoylethanolamide as substrate after 30 mins by LC/MS analysis
Lab note - cut at 700 nM for IC50: 1.0 if strictly below, 0.0 if not.

In [3]: df
Out[3]:
                                 smilesrepr  category
0              CC(C)(C)OC(=O)N[C@@H]1COC1=O       1.0
1       C[C@H]1OC(=O)[C@@H]1NC(=O)OC(C)(C)C       0.0
2          O=C(N[C@@H](CO)C(=O)O)OCc1ccccc1       0.0
3     C[C@@H]1OC(=O)[C@@H]1NC(=O)OCc1ccccc1       0.0
4               CC(C)(C)OC(=O)N[C@H]1COC1=O       1.0
5       C[C@@H]1OC(=O)[C@H]1NC(=O)OC(C)(C)C       1.0
6             O=C(NCc1ccccc1)N[C@@H]1COC1=O       0.0
7  C[C@@H]1OC(=O)[C@@H]1NC(=O)OCCCCCc1ccccc1       1.0
